target: Nuclear respiratory factor 1 (Homo sapiens) (UniProt Q16656); test: ATG_NRF1_CIS: Attagene CIS-FACTORIAL HepG2 Assay for human Nuclear Respiratory Factor 1 (NRF1) Orphan Gene (AID 2282987); settings: HepG2 NRF1 cis-element reporter, Attagene multiplex; actives raise or lower the signal
Sequence (Q16656 whole entry, looked up): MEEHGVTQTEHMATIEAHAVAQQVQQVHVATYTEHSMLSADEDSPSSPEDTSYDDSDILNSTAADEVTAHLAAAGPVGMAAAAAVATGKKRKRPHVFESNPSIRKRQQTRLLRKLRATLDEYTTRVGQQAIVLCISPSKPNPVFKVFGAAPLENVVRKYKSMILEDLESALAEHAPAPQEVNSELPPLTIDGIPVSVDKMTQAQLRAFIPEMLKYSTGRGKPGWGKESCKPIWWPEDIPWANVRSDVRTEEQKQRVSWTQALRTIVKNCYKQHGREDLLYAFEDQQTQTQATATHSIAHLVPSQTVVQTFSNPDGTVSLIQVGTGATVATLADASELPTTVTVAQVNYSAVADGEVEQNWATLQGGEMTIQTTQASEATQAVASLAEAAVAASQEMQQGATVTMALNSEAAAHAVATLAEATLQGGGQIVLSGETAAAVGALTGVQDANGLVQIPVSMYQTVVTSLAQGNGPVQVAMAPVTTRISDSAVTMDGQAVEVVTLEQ
Calls of active or inactive are those of the source. The calls were made as follows: active = hit-call score of the fitted dose curve at least 0.9, where 1 is the maximum; inactive = score below 0.9.
Outcome codes: active, inactive

compound=CCCCCCCCC=CCCCCCCCC1=NCCN1CCO category=inactive
compound="CCC(Cl)C(Cl)C(Cl)CC(Cl)C(Cl)C(C)Cl (centres undefined)" category=inactive
compound=c1ccc(Oc2ccccc2)cc1 category=inactive
compound=CCCOCCO category=inactive
compound=[O-]n1ccccc1=S.[O-]n1ccccc1=S.[Zn+2] category=inactive
compound=C=C1CC[C@H](O)C/C1=C/C=C1\CCC[C@]2(C)[C@@H]([C@H](C)/C=C/[C@H](C)C(C)C)CC[C@@H]12 category=inactive
compound=O=[N+]([O-])c1ccc(O)cc1C(F)(F)F category=active
compound=ClC(c1ccccc1)(c1ccccc1)c1ccccc1 category=inactive
compound=CCN(CCN)c1cccc(C)c1 category=inactive
compound=Cc1cc(=O)oc2cc(N(C)C)ccc12 category=inactive
compound=Cc1occc(=O)c1OC(=O)C(C)C category=inactive
compound=Nc1ccn([C@H]2CS[C@@H](CO)O2)c(=O)n1 category=inactive
compound=CCCCSCCCC category=inactive
compound=C=Cc1ccc(C(C)(C)C)cc1 category=inactive
compound="CC(C=O)Cc1ccc(C(C)(C)C)cc1 (centres undefined)" category=inactive
compound=C=C(C)[C@H]1CC=C(C)C(=O)C1 category=inactive
compound=CCOC(=O)c1ccc(N)cc1 category=inactive
compound=Clc1cc(Cl)c(-c2c(Cl)c(Cl)cc(Cl)c2Cl)cc1Cl category=inactive
compound=CSc1c(Cl)c(Cl)c(Cl)c(Cl)c1Cl category=active
compound="CCCCCCC(C)Nc1ccc(Nc2ccccc2)cc1 (centres undefined)" category=inactive
compound="CCC(C)S (centres undefined)" category=inactive
compound=O=C(O)CCCCCCCCC(=O)O category=inactive
compound=NCc1ccco1 category=inactive
compound=Oc1ccc2cc(SSc3ccc4cc(O)ccc4c3)ccc2c1 category=inactive
